target_or_system: T1, human SIRPαV1 extracellular domain + His-tag (NP_542970.1) (human, UniProt P78324 31-373)
T1 construct: also called hSIRPαV1; HuSIRPαV1
T1 sequence (P78324 other isoform, or with tags, fused parts or gaps): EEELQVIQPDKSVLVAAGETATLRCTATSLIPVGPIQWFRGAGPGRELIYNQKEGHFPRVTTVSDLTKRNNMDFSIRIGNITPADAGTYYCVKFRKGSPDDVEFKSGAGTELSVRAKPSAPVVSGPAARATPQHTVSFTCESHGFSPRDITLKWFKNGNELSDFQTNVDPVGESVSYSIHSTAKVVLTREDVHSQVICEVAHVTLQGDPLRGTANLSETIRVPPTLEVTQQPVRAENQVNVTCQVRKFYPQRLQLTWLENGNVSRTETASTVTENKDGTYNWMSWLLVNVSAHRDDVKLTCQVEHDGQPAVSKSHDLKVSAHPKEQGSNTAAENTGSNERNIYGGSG
assay_method_text: SPR, Ab captured, ECD-His analyte
quantity_name: Kd (nM)
Give the value, in units of nM, as a plain number.

According to the records, this binder Antibody E8 (antibody, human IgG1, kappa, L234A L235A, V domains shown) VH: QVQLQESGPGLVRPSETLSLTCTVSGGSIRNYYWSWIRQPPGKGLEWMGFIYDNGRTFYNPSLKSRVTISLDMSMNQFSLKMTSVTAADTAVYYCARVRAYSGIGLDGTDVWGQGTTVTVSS VL: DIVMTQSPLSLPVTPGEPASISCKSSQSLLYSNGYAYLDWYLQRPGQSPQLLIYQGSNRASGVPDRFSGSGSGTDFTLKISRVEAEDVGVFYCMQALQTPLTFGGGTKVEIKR displays Kd of 1.21

Kd measured on Antibody E15 (antibody, human IgG1, kappa, L234A L235A, V domains shown) VH: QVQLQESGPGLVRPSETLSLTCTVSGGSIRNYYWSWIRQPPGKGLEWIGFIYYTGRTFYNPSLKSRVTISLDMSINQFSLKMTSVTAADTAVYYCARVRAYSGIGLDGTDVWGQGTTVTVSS VL: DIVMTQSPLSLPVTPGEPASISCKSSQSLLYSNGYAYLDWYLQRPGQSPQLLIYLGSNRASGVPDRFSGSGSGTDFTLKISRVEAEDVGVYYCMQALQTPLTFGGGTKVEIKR = 1.91

Lab note: Antibody E11 (antibody, human IgG1, kappa, L234A L235A, V domains shown) VH: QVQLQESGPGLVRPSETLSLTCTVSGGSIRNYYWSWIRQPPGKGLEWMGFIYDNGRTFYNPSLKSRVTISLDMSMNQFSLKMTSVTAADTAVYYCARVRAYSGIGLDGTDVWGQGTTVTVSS VL: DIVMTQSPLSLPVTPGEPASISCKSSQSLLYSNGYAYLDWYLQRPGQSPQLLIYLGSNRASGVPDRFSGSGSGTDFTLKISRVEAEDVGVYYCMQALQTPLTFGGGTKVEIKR gave Kd of 1.41

Data point: Antibody E20 (antibody, human IgG1, kappa, L234A L235A, V domains shown) VH: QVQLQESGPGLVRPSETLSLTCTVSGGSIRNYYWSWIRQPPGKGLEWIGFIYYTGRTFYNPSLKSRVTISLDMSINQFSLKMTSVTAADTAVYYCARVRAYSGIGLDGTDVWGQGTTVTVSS VL: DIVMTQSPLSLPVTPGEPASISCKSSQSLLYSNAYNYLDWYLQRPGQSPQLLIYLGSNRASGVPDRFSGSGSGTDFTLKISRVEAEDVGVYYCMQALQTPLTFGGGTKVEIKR ; Kd = 3.42

Kd for Antibody E5 (antibody, human IgG1, kappa, L234A L235A, V domains shown) VH: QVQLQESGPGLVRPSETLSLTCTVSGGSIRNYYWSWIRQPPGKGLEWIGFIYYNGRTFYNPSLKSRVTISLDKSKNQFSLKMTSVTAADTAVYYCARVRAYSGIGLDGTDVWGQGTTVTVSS VL: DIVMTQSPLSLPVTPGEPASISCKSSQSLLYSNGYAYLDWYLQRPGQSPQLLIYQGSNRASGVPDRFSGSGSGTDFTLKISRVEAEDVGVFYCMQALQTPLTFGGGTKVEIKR is 1.02

Form field Kd, entry Antibody E17 (antibody, human IgG1, kappa, L234A L235A, V domains shown) VH: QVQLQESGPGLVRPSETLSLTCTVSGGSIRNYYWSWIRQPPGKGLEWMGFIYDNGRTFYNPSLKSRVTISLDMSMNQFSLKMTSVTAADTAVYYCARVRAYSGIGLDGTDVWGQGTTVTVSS VL: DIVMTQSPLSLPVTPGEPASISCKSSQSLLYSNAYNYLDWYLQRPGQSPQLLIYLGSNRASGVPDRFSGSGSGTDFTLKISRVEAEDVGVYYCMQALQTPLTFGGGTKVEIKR : 2.36

So, Antibody E12 (antibody, human IgG1, kappa, L234A L235A, V domains shown) VH: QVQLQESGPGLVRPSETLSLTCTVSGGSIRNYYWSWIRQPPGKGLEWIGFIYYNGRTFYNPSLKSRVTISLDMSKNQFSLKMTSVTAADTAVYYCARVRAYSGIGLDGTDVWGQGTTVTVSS VL: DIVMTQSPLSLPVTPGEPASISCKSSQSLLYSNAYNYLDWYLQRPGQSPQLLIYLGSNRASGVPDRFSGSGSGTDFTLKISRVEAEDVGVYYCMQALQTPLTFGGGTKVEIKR ? Its Kd was 1.67

Documented Kd of Antibody E3 (antibody, human IgG1, kappa, L234A L235A, V domains shown) VH: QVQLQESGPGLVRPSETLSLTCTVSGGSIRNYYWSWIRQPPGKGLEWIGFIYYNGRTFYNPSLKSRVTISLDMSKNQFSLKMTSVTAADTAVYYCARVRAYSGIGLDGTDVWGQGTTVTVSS VL: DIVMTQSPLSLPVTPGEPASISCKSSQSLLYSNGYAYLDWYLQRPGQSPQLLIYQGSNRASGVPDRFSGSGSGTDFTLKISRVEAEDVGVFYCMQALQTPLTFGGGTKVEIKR : 0.964

The binder listed as Antibody E6 (antibody, human IgG1, kappa, L234A L235A, V domains shown) VH: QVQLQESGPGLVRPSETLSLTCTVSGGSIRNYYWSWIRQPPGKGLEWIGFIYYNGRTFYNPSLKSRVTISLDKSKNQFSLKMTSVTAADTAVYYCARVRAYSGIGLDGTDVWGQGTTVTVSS VL: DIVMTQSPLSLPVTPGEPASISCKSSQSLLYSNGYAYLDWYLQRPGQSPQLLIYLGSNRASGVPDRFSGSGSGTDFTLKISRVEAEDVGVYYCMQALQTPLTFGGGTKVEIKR shows Kd equal to 1.03

Lab book: Kd of Antibody E1 (antibody, human IgG1, kappa, L234A L235A, V domains shown) VH: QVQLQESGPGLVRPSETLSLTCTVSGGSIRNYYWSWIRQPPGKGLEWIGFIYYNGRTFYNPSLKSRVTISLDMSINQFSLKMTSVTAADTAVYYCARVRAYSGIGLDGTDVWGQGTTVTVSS VL: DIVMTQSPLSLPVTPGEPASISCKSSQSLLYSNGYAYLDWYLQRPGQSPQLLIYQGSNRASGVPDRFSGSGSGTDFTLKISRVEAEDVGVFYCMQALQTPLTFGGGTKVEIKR noted as 0.723

Documented Kd of Antibody E10 (antibody, human IgG1, kappa, L234A L235A, V domains shown) VH: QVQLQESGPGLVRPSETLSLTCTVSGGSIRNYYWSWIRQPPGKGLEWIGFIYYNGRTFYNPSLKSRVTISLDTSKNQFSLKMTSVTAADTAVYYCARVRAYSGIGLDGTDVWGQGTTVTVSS VL: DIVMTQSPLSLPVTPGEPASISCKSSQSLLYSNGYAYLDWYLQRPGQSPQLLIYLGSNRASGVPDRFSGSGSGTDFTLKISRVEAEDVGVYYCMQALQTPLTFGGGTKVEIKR : 1.23
